FYI, the data here is from patent US11981658B2.

- TARGET_UNDER_TEST: EGFR Del19/C797S (Homo sapiens, UniProt P00533, C797S/DEL746-750)
- Sequence (P00533 with tags, fused parts or gaps DEL746-750/C797S): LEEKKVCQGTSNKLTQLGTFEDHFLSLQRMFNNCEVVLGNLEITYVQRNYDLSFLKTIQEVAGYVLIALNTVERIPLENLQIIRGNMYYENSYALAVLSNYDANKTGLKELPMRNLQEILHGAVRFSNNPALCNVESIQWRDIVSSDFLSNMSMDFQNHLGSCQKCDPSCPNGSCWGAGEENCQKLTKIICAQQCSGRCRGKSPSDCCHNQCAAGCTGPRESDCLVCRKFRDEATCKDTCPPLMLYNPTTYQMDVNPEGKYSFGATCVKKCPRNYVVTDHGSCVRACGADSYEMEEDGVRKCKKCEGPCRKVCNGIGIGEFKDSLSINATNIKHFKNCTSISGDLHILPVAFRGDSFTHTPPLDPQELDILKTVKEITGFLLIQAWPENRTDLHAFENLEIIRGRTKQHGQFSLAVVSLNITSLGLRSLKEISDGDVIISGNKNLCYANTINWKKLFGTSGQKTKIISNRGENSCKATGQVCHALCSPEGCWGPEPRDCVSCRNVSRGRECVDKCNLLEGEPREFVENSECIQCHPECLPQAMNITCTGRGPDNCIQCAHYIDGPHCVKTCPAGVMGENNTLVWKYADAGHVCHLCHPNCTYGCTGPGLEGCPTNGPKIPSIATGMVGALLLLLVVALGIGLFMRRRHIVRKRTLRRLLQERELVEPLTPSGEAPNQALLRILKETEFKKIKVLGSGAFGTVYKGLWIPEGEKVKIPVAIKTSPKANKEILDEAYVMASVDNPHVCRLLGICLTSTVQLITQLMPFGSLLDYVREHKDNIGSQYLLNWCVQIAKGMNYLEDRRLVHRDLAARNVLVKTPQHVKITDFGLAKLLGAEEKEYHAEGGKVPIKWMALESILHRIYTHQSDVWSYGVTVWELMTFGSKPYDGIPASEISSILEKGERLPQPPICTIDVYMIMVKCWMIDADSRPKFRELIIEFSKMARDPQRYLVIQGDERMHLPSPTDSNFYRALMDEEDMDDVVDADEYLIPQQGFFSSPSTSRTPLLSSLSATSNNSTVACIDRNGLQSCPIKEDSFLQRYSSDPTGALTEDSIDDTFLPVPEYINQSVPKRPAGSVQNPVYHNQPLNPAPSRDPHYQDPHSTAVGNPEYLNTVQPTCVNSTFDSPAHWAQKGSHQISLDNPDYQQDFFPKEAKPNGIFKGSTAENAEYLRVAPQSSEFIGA
- EXPERIMENT_DESCRIPTION: Biochemical EGFR kinase inhibition assay (Lance Ultra TR-FRET), double mutant del19/C797S
- PARTICULARS: IC50 Del19/C797S (nM), 100 μM ATP
Labelling field: enter T if recorded IC50 is less than 50 nM. Enter F if it equals or exceeds that cut-off.

>  <MOLECULE>
O=S(=O)(C1CC1)n1cc(-c2nccc(Nc3cc(N4CCC[C@H](O)C4)c(C#Cc4ccsc4)cn3)n2)cn1 [Example 228]

>  <CLASS>
F

$$$$
>  <MOLECULE>
Cn1cnc(C#Cc2cnc(Nc3ccnc(-c4cnn(S(=O)(=O)C5CC5)c4)n3)cc2N[C@@H]2CC[C@H](O)C2)c1 [Example 223]

>  <CLASS>
T

$$$$
>  <MOLECULE>
CC1(CO)CCN(c2cc(Nc3ccnc(-c4cnn(S(=O)(=O)C5CC5)c4)n3)ncc2C#CC2CC(C(C)(C)O)C2)CC1 (stereo not drawn) [Example 266]

>  <CLASS>
T

$$$$
>  <MOLECULE>
CC(C)(O)[C@H]1CC[C@@H](Nc2cc(Nc3ccnc(-c4cnn(S(=O)(=O)C5CC5)c4)n3)ncc2C#Cc2cnn(CC(F)(F)F)c2)CC1 [Example 346]

>  <CLASS>
T

$$$$
>  <MOLECULE>
CN(C)S(=O)(=O)n1cc(-c2nccc(Nc3cc(N4CCC(C)(CO)CC4)c(C#Cc4cnn(C(F)(F)F)c4)cn3)n2)cn1 [Example 273]

>  <CLASS>
F

$$$$

Okay, next one:
Criterion: IC50 strictly below 50 nM. Is it met by O=S(=O)(C1CC1)n1cc(-c2nccc(Nc3cc(N4CCC(F)(CO)CC4)c(C#Cc4cnn(C5CCOCC5)c4)cn3)n2)cn1 [Example 96] ?
T

----------
- TARGET_UNDER_TEST: EGFR Del19/T790M/C797S (Homo sapiens, UniProt P00533, C797S/DEL746-750/T790M)
- Sequence (P00533 with tags, fused parts or gaps DEL746-750/T790M/C797S): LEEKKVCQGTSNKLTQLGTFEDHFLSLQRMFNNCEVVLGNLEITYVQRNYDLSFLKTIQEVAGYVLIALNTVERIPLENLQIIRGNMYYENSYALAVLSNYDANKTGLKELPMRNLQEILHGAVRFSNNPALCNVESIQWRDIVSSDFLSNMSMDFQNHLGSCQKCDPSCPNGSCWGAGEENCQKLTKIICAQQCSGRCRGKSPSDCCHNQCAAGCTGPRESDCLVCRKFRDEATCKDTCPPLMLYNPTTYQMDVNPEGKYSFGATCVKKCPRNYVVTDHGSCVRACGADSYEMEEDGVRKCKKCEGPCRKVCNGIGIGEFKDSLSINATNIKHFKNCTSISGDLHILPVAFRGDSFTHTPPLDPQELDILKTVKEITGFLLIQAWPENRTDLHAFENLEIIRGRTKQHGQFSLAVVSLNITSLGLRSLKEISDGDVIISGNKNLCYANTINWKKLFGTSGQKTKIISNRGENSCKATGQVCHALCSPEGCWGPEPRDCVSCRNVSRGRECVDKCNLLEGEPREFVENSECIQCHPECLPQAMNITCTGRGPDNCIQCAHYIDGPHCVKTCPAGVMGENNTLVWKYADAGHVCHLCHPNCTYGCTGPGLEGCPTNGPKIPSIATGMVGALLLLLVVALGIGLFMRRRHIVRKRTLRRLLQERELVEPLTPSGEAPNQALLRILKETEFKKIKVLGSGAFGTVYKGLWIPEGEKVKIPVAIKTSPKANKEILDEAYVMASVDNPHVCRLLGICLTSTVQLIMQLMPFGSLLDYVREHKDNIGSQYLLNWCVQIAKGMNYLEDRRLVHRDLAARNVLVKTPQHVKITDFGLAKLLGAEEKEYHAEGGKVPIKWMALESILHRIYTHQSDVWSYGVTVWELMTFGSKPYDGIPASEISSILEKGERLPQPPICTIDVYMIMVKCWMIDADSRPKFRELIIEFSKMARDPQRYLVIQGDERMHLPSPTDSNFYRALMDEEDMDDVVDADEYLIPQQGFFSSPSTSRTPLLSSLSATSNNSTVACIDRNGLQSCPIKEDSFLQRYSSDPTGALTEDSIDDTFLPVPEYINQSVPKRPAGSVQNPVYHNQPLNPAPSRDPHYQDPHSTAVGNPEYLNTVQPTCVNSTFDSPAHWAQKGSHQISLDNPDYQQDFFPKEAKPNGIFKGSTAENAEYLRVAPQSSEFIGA
- EXPERIMENT_DESCRIPTION: Biochemical EGFR kinase inhibition assay (Lance Ultra TR-FRET), triple mutant del19/T790M/C797S
- PARTICULARS: IC50 Del19/T790M/C797S (nM), 100 μM ATP
METRIC: log10(IC50) (log10 of the value in nM)
For clarity, the numbers are log10 values of IC50 expressed in nM.

Examples with their reported log10(IC50) follow.
>  <MOLECULE>
O=S(=O)(C1CC1)n1cc(-c2nccc(Nc3cc(N4CCC[C@H](O)C4)c(C#Cc4ccsc4)cn3)n2)cn1 [Example 228]

>  <NUMERIC_READOUT>
0.79

$$$$
>  <MOLECULE>
CC1(O)CCN(c2cc(Nc3ccnc(-c4cnn(S(=O)(=O)C5CC5)c4)n3)ncc2C#CC2CC3CCC2O3)CC1 (stereo not shown) [Example 424]

>  <NUMERIC_READOUT>
-0.70

$$$$
>  <MOLECULE>
COC1CCN(c2cc(Nc3ccnc(-c4cnn(S(=O)(=O)C5CC5)c4)n3)ncc2C#Cc2cnn(C3CCOCC3)c2)CC1 [Example 98]

>  <NUMERIC_READOUT>
0.32

$$$$
>  <MOLECULE>
O=S(=O)(C1CC1)n1cc(-c2nccc(Nc3cc(NCC4CCC(O)CC4)c(C#CC4CCCO4)cn3)n2)cn1 (stereo not shown) [Example 375]

>  <NUMERIC_READOUT>
0.51

$$$$
>  <MOLECULE>
COC1(C)CCN(c2cc(Nc3ccnc(-c4cnn(S(=O)(=O)C5CC5)c4)n3)ncc2C#Cc2cccnc2)CC1 [Example 281]

>  <NUMERIC_READOUT>
1.91

$$$$
>  <MOLECULE>
Cn1cc(C#Cc2cnc(Nc3ccnc(-c4cnn(S(=O)(=O)C5CC5)c4)n3)cc2N2CCCC(CO)CC2)cn1 (stereo not shown) [Example 78]

>  <NUMERIC_READOUT>
0.11

$$$$

Proceeding to the next molecule to report its log10(IC50).
So what does the record say about log10(IC50) for O=S(=O)(C1CC1)n1cc(-c2nccc(Nc3cc(N4CCC[C@@H](O)C4)c(C#Cc4cnn(CCF)c4)cn3)n2)cn1 [Example 440] ?
-0.30
